Reported FACS-Seq fitted mean (log10) values for the following variants.
B1: library; a variant is named by its letters at N, in order (parent)
chain: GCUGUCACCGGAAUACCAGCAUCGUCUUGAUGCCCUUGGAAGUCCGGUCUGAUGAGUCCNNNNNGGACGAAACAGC

# Variants of: B1
# test.summary: FACS-Seq fitted mean relative fluorescence mCherry/BFP with ligand (log10 relative fluorescence); ligand concentration (+) FACS-Seq: 1 mM; higher = higher reporter protein expression
# test.conditions: HEK293T, ligand present: yes
measurement.label: FACS-Seq fitted mean (log10)

• UCCCC = 1.06
• CUUAA = 0.961
• UUAAU = 1.07
• CGCGA = 0.923
• AACAU = 0.439
• CACCA = 0.792
• AUUAG = 0.738
• CAGCA = 0.461
• UCGAU = 0.815
• GAGCG = 0.81
• UAAGA = 0.22
• CUUCC = 0.683
• UUUUU = 0.991
• UGGAU = 0.624
• CUAUU = 0.924
• CGAUC = 0.495
• AAAGG = 0.426
• GUAUU = 0.804
• UUAUC = 1.19
• GUAAA = 0.936
• GAUAU = 0.81
• CGAGU = 0.873
• AUUCA = 0.971
• ACCAG = 1.02
• AUAUC = 1.06
• AAUCA = 0.221
• GAGCC = 0.918
• CAGGA = 0.799
• ACGUA = 0.921
• CAGUC = 0.68
• ACCAU = 0.605
• UCCUC = 0.566
• ACGUC = 1.12
• CGCUA = 0.612
• CGUCC = 0.87
• UCCUU = 1.01
• CCCUA = 0.751
• CCACA = 0.47
• AGUAC = 0.749
• UACUA = 1.05
• ACCUU = 1.27
• AUGGA = 0.631
• UAGCA = 0.757
• AUGCA = 0.96
• AUAAG = 0.578
• UCAAA = 0.459

# credit: the supplement of paper PMC6757056
